System: NCI-H322M lung
Assay: NCI-60 one-dose screen, 48 h
Conditions: 10 µM unless noted
This is part of a sample that, as a whole, favours compounds with a hit. Of some 83,000 tested, about 20% had one in any assay. The source made the active and inactive calls. How the source made its calls: active means growth percent below 10; inactive means the rest.
// allowed return values: active, inactive

[
  {
    "compound": "COc1cc(-c2ccc3ncnc(N4CCc5ccc(Cl)cc54)c3c2)cnc1Cl",
    "system_under_test": "NCI-H322M lung",
    "group_label": "inactive"
  },
  {
    "compound": "COc1ccc(N=Nc2c(N)nn3c(-c4ccc5c(c4)C=S=C5)ccnc23)cc1",
    "system_under_test": "NCI-H322M lung",
    "group_label": "inactive"
  },
  {
    "compound": "O=C1NC(=S)/C(=C/c2cn(-c3ccccc3)nc2-c2ccccc2)S1",
    "system_under_test": "NCI-H322M lung",
    "group_label": "inactive"
  },
  {
    "compound": "COc1ccc2c(c1)c(-c1cc(N)n3nc(-c4c[nH]c5ccccc45)cc3n1)cn2C",
    "system_under_test": "NCI-H322M lung",
    "group_label": "active"
  },
  {
    "compound": "O=C(Nc1ccc(-c2ccc3c(c2)NC(=O)/C3=C\\c2ccc[nH]2)cc1)Nc1ccc(Cl)c(Cl)c1",
    "system_under_test": "NCI-H322M lung",
    "group_label": "inactive"
  }
]

Query block: Which result was noted for this compound in the test: O=C(Nc1ccc(Cl)c(C(F)(F)F)c1)N1CCN(c2cc(-c3cn(-c4ccccc4)nc3-c3cccc(O)c3)ccn2)CC1
Result block: inactive

Query block: Call for entry O=C(N/N=C/c1ccc(Cl)cc1)c1ccc(OCc2nc3ccc(Cl)cc3[nH]2)cc1 :
Result block: inactive

Origin of measurements: PubChem BioAssay (NCI)
